Test system: M. luteus DBM 3053
Type: cell-based, Micrococcus luteus
measurement conditions: DBM 3053, 25 h
Residues, ends and D or L forms follow the SMILES beside them. *: point of attachment. Lithocholoyl = C[C@H](CCC(=O)*)[C@H]1CC[C@H]2[C@@H]3CC[C@@H]4C[C@H](O)CC[C@]4(C)[C@H]3CC[C@]12C; Palmitoyl = CCCCCCCCCCCCCCCC(=O)*

| molecule | IC50 (µg/mL) |
| --- | --- |
| CC(C)C[C@H](NC(=O)CC[C@@H](C)[C@H]1CC[C@H]2[C@@H]3CC[C@@H]4C[C@H](O)CC[C@]4(C)[C@H]3CC[C@]12C)C(=O)N[C@H](C(=O)N[C@@H](CCCCN)C(=O)NCC(=O)N[C@@H](C)C(=O)N[C@@H](CCCNC(=N)N)C(N)=O)C(C)C [SHP-2.3, LCA-LVKGAR-NH2] (Lithocholoyl-LVKGAR-NH2) | 5.0 |
| CCCCCCCCCCCCCCCC(=O)N[C@@H](CC(C)C)C(=O)N[C@H](C(=O)N[C@@H](CCCCN)C(=O)NCC(=O)N[C@@H](C)C(=O)N[C@@H](CCCNC(=N)N)C(N)=O)C(C)C [SHP-2.2, PAL-LVKGAR-NH2] (Palmitoyl-LVKGAR-NH2) | 10.0 |

====

Tested on: HEK293T
assay overview: Cytotoxicity assay (xCELLigence impedance)
Assay type: cell-based, human
measurement conditions: c 200 µg/mL, 24 h exposure
Residues, ends and D or L forms follow the SMILES beside them. *: point of attachment. Lithocholoyl = C[C@H](CCC(=O)*)[C@H]1CC[C@H]2[C@@H]3CC[C@@H]4C[C@H](O)CC[C@]4(C)[C@H]3CC[C@]12C; Palmitoyl = CCCCCCCCCCCCCCCC(=O)*
value type: % inhibition (%)

| molecule | value type | recorded measurement |
| --- | --- | --- |
| CCCCCCCCCCCCCCCC(=O)N[C@@H](CC(C)C)C(=O)N[C@H](C(=O)N[C@@H](CCCCN)C(=O)NCC(=O)N[C@@H](C)C(=O)N[C@@H](CCCNC(=N)N)C(N)=O)C(C)C [SHP-2.2, PAL-LVKGAR-NH2] (Palmitoyl-LVKGAR-NH2) | % inhibition | 28.6 |
| CCCCCCCCCCCCCCCC(=O)NCC(=O)N[C@H](C(=O)N[C@@H](CC(C)C)C(=O)N[C@@H](CCCCN)C(=O)N[C@@H](CCCNC(=N)N)C(=O)N[C@@H](C)C(N)=O)C(C)C [SHP-3.2, PAL-GVLKRA-NH2] (Palmitoyl-GVLKRA-NH2) | % inhibition | 0.0 |
| CCCCCCCCCCCCCCCC(=O)N[C@@H](CC(C)C)C(=O)N[C@H](C(=O)N[C@@H](CCCCN)C(=O)N[C@@H](CCCNC(=N)N)C(=O)N[C@@H](C)C(=O)NCC(N)=O)C(C)C [SHP-1.2, PAL-LVKRAG-NH2] (Palmitoyl-LVKRAG-NH2) | % inhibition | 73.1 |
| CC(C)C[C@H](NC(=O)[C@@H](NC(=O)CNC(=O)CC[C@@H](C)[C@H]1CC[C@H]2[C@@H]3CC[C@@H]4C[C@H](O)CC[C@]4(C)[C@H]3CC[C@]12C)C(C)C)C(=O)N[C@@H](CCCCN)C(=O)N[C@@H](CCCNC(=N)N)C(=O)N[C@@H](C)C(N)=O [SHP-3.3, LCA-GVLKRA-NH2] (Lithocholoyl-GVLKRA-NH2) | % inhibition | 88.2 |
| CC(C)C[C@H](NC(=O)CC[C@@H](C)[C@H]1CC[C@H]2[C@@H]3CC[C@@H]4C[C@H](O)CC[C@]4(C)[C@H]3CC[C@]12C)C(=O)N[C@H](C(=O)N[C@@H](CCCCN)C(=O)N[C@@H](CCCNC(=N)N)C(=O)N[C@@H](C)C(=O)NCC(N)=O)C(C)C [SHP-1.3, LCA-LVKRAG-NH2] (Lithocholoyl-LVKRAG-NH2) | % inhibition | 84.1 |
